assay: MM1S cell viability effects, profiling panel, calcein-AM fluorescence, 48 h, basal (AID 1165); details: higher = more signal;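 note: viability of MM1S multiple myeloma cells under basal unstimulated conditions; test concentration not given here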
just bin them by z-score: c1 = under -1, c2 = from -1 up to -0.03, c3 = -0.03 and over

[[record]]
compound = "CO[C@H]1COC(=O)CC=C[C@H](C)COC(=O)[C@@H](OCc2ccccc2)C=C[C@@H]1C"
group_label = "c3"

[[record]]
compound = "COc1ccc(CCNC(=O)[C@@]2(c3ccc([N+](=O)[O-])cc3)CC(=O)N(C(C)C)[C@@H]2c2ccc(CO)cc2)cc1"
group_label = "c3"

[[record]]
compound = "CC(C)N1CC=CC23O[C@@H]4/C=C\\CCCOC(=O)C4[C@H]2C(=O)N(CCO)[C@@H]3C1=O (some centres undefined)"
group_label = "c3"

[[record]]
compound = "C=C(CCCC)/C(=C/C[C@@H](OC(=O)c1ccncc1)c1cccc(OCCO)c1)c1cc(C(=O)OC)ccc1OC"
group_label = "c1"

[[record]]
compound = "CCCNC(=O)[C@@H]1c2ccccc2C(=O)N(Cc2cc(F)cc(C(F)(F)F)c2)[C@H]1c1ccc(CO)cc1"
group_label = "c3"

[[record]]
compound = "C[C@H]1NC(=O)[C@@H](C)NC(=O)[C@@]23C(=O)N[C@@H](Cc4ccccc4)C2[C@H](C)[C@@]2(C)O[C@H]2C3/C=C/C/C=C\\CNC1=O (some centres undefined)"
group_label = "c2"

[[record]]
compound = "C=C(CCCC)C(=O)CC[C@@H](OC(C)=O)c1ccccc1OCCO"
group_label = "c1"

[[record]]
compound = "C=CCC(OC(C)=O)[C@@H]1[C@@H](N(Cc2cccc3ccccc23)C(=O)c2ccc(C)cc2)c2cc(OCCCO)ccc2N1C(=O)c1ccc(-c2ccccc2)cc1 (some centres undefined)"
group_label = "c3"

[[record]]
compound = "CCOC(=O)C[C@H]1[C@H](OC(=O)c2cc3ccccc3oc2=O)[C@@H](NC(=O)c2ccc3ccccc3c2)c2cc(OCCCO)ccc2N1C(=O)c1ccc2ccccc2n1"
group_label = "c3"

[[record]]
compound = "O=C(CS)NCCCCCNC(=O)[C@H]1C[C@H]2C(=O)N[C@@H](Cc3ccccc3)C(=O)N2[C@H]1c1ccc(O)cc1"
group_label = "c2"

[[record]]
compound = "CCOC(=O)C1=CCC(c2cccc3ccccc23)N(S(=O)(=O)c2ccc(C)cc2)C1 (centres undefined)"
group_label = "c3"

[[record]]
compound = "C[C@H]1COC(=O)[C@H](Cc2ccccc2)NC(=O)[C@@H](C)COC(=O)[C@H](Cc2ccccc2)NC1=O"
group_label = "c3"

[[record]]
compound = "CCOC(=O)C[C@H]1[C@H](OC(=O)c2ccccc2-c2ccccc2)[C@@H](NC(=O)C2CCCCC2)c2cc(OCCCO)ccc2N1C(=O)c1ccccc1"
group_label = "c2"

[[record]]
compound = "O=C1O[C@@H](c2ccccc2)[C@@H](c2ccccc2)N2[C@@H](c3ccc(O)cc3)[C@]3(C(=O)Nc4ccccc43)[C@@H](C(=O)N3CCN(c4ncccn4)CC3)[C@H]12"
group_label = "c1"

[[record]]
compound = "CN(C)C(=O)[C@@]1(Cc2ccccc2N=[N+]=[N-])N=C(c2ccc(OCCCO)cc2)O[C@H]1c1ccccc1CN=[N+]=[N-]"
group_label = "c1"

[[record]]
compound = "CC(C)[Si](OCC[C@H]1O[C@]2(C(=O)N(Cc3ccccc3)c3ccccc32)[C@@H](C)[C@@H]1[Si](C)(C)O)(C(C)C)C(C)C"
group_label = "c2"

[[record]]
compound = "C=CCC(OC(C)=O)[C@@H]1[C@@H](N(Cc2ccc(-c3cccc(C(F)(F)F)c3)o2)C(=O)Cc2ccc(F)cc2)c2cc(OCCCO)ccc2N1C(=O)c1ccc(-c2ccccc2)cc1 (some centres undefined)"
group_label = "c3"

[[record]]
compound = "O=C1NC(=O)C2C1C=CC(C(O)C=Cc1ccc([N+](=O)[O-])cc1)N2Nc1ccccn1 (centres undefined)"
group_label = "c2"

[[record]]
compound = "C[C@H]1C2[C@H](Cc3ccccc3)NC(=O)[C@]23C(=O)N[C@H](Cc2ccccc2)C(=O)N[C@@H](Cc2ccccc2)C(=O)NC/C=C\\C/C=C/C3[C@@H]2O[C@]12C (some centres undefined)"
group_label = "c2"

[[record]]
compound = "C=C(C)[C@@H]1CC=C(C(O)C2C=CC3C(=O)NC(=O)C3N2Nc2ccccn2)CC1 (some centres undefined)"
group_label = "c3"

[[record]]
compound = "CN(C)CCCC[C@@H]1NC(=O)[C@@H]2C[C@H](C(=O)O)[C@H](c3ccc(O)cc3)N2C1=O"
group_label = "c1"

[[record]]
compound = "COC(=O)C[C@H]1O[C@]2(C(=O)N(Cc3ccccc3)c3ccc(I)cc32)[C@@H](C)[C@@H]1[Si](C)(C)c1ccc(OC)cc1"
group_label = "c2"

[[record]]
compound = "C[N+](C)(C)CCCCNC(=O)[C@@H]1C[C@@H]2C(=O)N3CCC[C@H]3C(=O)N2[C@@H]1c1cccc(OCCO)c1"
group_label = "c2"

[[record]]
compound = "C=CCN1C(=O)[C@@]2(Cc3ccccc3)N=C(c3ccc(OCCCO)cc3)O[C@H]2c2ccccc21"
group_label = "c1"

[[record]]
compound = "CO[C@]12C=C(Br)[C@@H](C[C@@H]1c1ccccc1)[C@@]1(CO1)C2=O"
group_label = "c1"

[[record]]
compound = "Cc1ccc(S(=O)(=O)N2[C@@H](c3ccccc3)C(C(=O)O)=CC[C@H]2c2ccccc2)cc1"
group_label = "c2"

